Where these numbers come from: paper PMC5700166

Biological target: GST-Nv-NF-kB (Cys allele) (Nematostella vectensis, UniProt E5G601 2-411)
Sequence: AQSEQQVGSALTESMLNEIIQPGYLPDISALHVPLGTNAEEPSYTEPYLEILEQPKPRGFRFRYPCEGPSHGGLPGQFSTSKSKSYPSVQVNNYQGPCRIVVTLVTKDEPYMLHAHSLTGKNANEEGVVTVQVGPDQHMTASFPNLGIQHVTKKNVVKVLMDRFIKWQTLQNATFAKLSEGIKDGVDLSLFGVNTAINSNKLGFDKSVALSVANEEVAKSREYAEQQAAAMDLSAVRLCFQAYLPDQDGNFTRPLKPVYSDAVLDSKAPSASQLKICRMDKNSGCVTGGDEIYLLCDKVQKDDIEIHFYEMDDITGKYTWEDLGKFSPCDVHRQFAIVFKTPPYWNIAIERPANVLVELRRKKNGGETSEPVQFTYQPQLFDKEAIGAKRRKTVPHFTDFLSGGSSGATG
Test: protein-binding microarray (PBM); PBM: ~300 nM protein, 6 mM HEPES pH 7.8, 80 mM KCl, 0.5 mM EDTA, 0.5 mM EGTA, 6% glycerol, 35 ng/ul poly-dIdC, 1% milk, 1 h, room temperature; high values mean tight binding
Details: dsDNA, one strand shown
Entry class follows binding signal: zone 1 = under 2 z-score, zone 2 = from 2 z-score up to 5 z-score, zone 3 = 5 z-score and over

Task item: Would you mind sorting CCGATTAACATCAACTCTCCCCCTGATGTTAATCGGGTCTTGATTCGCTTGACGCTGCTG into the appropriate category?
Reply: zone 2

Task item: Item: CCGATTAACATCACGCAAATCCCTGATGTTAATCGGGTCTTGATTCGCTTGACGCTGCTG
Reply: zone 1

Task item: Item: CCGATTAACATCAGGGAATTCCCTGATGTTAATCGGGTCTTGATTCGCTTGACGCTGCTG
Reply: zone 3

Task item: Item: CCGATTAACATCACATATACCCCTGATGTTAATCGGGTCTTGATTCGCTTGACGCTGCTG
Reply: zone 1

Task item: Item: CCGATTAACATCAAGGGAAATCCTGATGTTAATCGGGTCTTGATTCGCTTGACGCTGCTG
Reply: zone 3

Task item: Item: CCGATTAACATCAGGGATCTACCTGATGTTAATCGGGTCTTGATTCGCTTGACGCTGCTG
Reply: zone 2

Task item: Item: CCGATTAACATCAATCGGGAAATTGATGTTAATCGGGTCTTGATTCGCTTGACGCTGCTG
Reply: zone 2

---

Would you mind telling me the reported binding signal of each entry?
Target: GST-Co-NF-kB (Capsaspora owczarzaki, UniProt F1ARL5 200-546)
Sequence: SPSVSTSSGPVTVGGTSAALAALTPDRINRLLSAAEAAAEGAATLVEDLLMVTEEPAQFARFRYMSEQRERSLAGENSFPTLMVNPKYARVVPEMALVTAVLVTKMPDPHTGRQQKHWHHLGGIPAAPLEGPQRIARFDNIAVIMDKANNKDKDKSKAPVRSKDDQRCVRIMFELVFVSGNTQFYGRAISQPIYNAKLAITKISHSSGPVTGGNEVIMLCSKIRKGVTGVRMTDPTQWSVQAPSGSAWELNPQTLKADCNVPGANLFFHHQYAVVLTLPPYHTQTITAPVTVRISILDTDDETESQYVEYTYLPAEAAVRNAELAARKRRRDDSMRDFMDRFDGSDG
Assay: protein-binding microarray (PBM); PBM: ~300 nM protein, 6 mM HEPES pH 7.8, 80 mM KCl, 0.5 mM EDTA, 0.5 mM EGTA, 6% glycerol, 35 ng/ul poly-dIdC, 1% milk, 1 h, room temperature; Ap Aiptasia and Nv Nematostella (sea anemones) / Co Capsaspora / Aq Amphimedon (sponge) / Dm Drosophila / Hu human; RHD is the Rel homology domain; high values mean tight binding
Details: dsDNA, one strand shown
The response must be a number in z-score with no trailing unit.

Task item: Using the record for CCGATTAACATCAGGGGGATAACTGATGTTAATCGGGTCTTGATTCGCTTGACGCTGCTG , report its binding signal.
Reply: 6.99

Task item: Item: CCGATTAACATCAGGGAAAGCTATGATGTTAATCGGGTCTTGATTCGCTTGACGCTGCTG
Reply: 2.65

Task item: Item: CCGATTAACATCAAATGACCCCCTGATGTTAATCGGGTCTTGATTCGCTTGACGCTGCTG
Reply: 2.98

Task item: Item: CCGATTAACATCAGGGGTTTTGATGATGTTAATCGGGTCTTGATTCGCTTGACGCTGCTG
Reply: 1.34

Task item: Item: CCGATTAACATCAAAATTCCCTTTGATGTTAATCGGGTCTTGATTCGCTTGACGCTGCTG
Reply: 2.62

Task item: Item: CCGATTAACATCAGGGGCGGGAATGATGTTAATCGGGTCTTGATTCGCTTGACGCTGCTG
Reply: 3.85

Task item: Item: CCGATTAACATCAGGGAATCACCTGATGTTAATCGGGTCTTGATTCGCTTGACGCTGCTG
Reply: 2.45

Task item: Item: CCGATTAACATCAGGGGGTTGCATGATGTTAATCGGGTCTTGATTCGCTTGACGCTGCTG
Reply: 2.22

Task item: Item: CCGATTAACATCAGGATCTCCCCTGATGTTAATCGGGTCTTGATTCGCTTGACGCTGCTG
Reply: 4.26
